IC50 for assorted molecules
# Measurement Target: recombinant full length LRRK2 (Homo sapiens)
# Construct: A BacMam virus expressing full length recombinant LRRK2 was purchased from Invitrogen; host or cells: SH-SY5Y human neuroblastoma cells transduced with BacMam LRRK2 virus (MOI 50)
# Assay Explanation: Recombinant cellular LRRK2 AlphaScreen assay
# Assay type: cell-based
# Condition Context: LRRK2 Ser935 phosphorylation, SH-SY5Y cells over-expressing recombinant full length LRRK2; read-out: pIC50 in the recombinant cellular LRRK2 AlphaScreen assay (converted)
Value Type: IC50

> print(dat)
                                    molecule                        measurement.target  reported.result
 1  Cc1nc(N2CCO[C@@H](CO)C2)cc(-n2ncc3cc(C)c(C4CCN(C5CCOC5)CC4F)cc32)n1 (single isomer, unassigned) [Example E101]  recombinant full length LRRK2 (Homo sapiens)         ≤ 100 nM
 2  COc1nc(N2CC(C)(O)C2)cc(-n2ncc3cc(C)c(C4CCN(C5CCOC5)CC4)cc32)n1 (single isomer, unassigned)  recombinant full length LRRK2 (Homo sapiens)         ≤ 100 nM
 3  Cc1nc(N[C@H]2C[C@H](O)C2)cc(-n2ncc3cc(C)c(C4CCN(C5CCOC5)CC4)cc32)n1 (single isomer, unassigned)  recombinant full length LRRK2 (Homo sapiens)        ≤ 1000 nM
 4  Cc1nc(N2CCOC(C(C)O)C2)cc(-n2ncc3cc(C)c(C4CCN(C5CCOC5)CC4)cc32)n1 (single isomer, unassigned) [Example E142]  recombinant full length LRRK2 (Homo sapiens)        ≤ 1000 nM
 5  [2H]C1(N2CCC(c3cc4c(cnn4-c4cc(N5CCO[C@@H](CO)C5)nc(C)n4)cc3C)CC2)CCOC1 (single isomer, unassigned) [Example E36]  recombinant full length LRRK2 (Homo sapiens)           158 nM
 6  Cc1nc(N[C@H]2C[C@@H](O)C2)cc(-n2ncc3cc(C)c(C4CCN(C5CCOC5)CC4)cc32)n1 (single isomer, unassigned) [Example E133]  recombinant full length LRRK2 (Homo sapiens)        ≤ 1000 nM
 7  COc1nc(N2CC(O)C2)cc(-n2ncc3cc(Cl)c(C4CCN(C5CCOC5)CC4)cc32)n1 (single isomer, unassigned) [Example E30]  recombinant full length LRRK2 (Homo sapiens)         ≤ 100 nM
 8  Cc1nc(N2CCOC(C)(CO)C2)cc(-n2ncc3cc(C)c(C4CCN([C@H]5CCOC5)CC4)cc32)n1 (stereo partly drawn)  recombinant full length LRRK2 (Homo sapiens)        ≤ 1000 nM
 9  Cc1nc(N2CCOC[C@@H]2CO)cc(-n2ncc3cc(C)c(C4CCN(C5CCOC5)CC4)cc32)n1 (single isomer, unassigned)  recombinant full length LRRK2 (Homo sapiens)        ≤ 1000 nM
10  Cc1nc(N2CCOC(C(C)O)C2)cc(-n2ncc3cc(C)c(C4CCN(C5CCOC5)CC4)cc32)n1 (single isomer, unassigned) [Example E137]  recombinant full length LRRK2 (Homo sapiens)        ≤ 1000 nM
11  COc1nc(N2CC[C@H](O)C2)cc(-n2ncc3cc(C)c(C4CCN(C5CCOC5)CC4)cc32)n1 (single isomer, unassigned)  recombinant full length LRRK2 (Homo sapiens)         ≤ 100 nM
12  Cc1nc(N[C@@H]2CCOC2)cc(-n2ncc3cc(C)c(C4CCN(C5CCOC5)CC4)cc32)n1 (stereo partly drawn)  recombinant full length LRRK2 (Homo sapiens)        ≤ 1000 nM
13  Cc1nc(N2CCO[C@@H](CO)C2)cc(-n2ncc3cc(C)c(C4CCN([C@H]5CCOC5)CC4)cc32)n1 (single isomer, unassigned)  recombinant full length LRRK2 (Homo sapiens)           100 nM
14  Cc1nc(N2CCO[C@H](CO)C2)cc(-n2ncc3cc(C)c(C4CCN(C5CCOC5)CC4F)cc32)n1 (single isomer, unassigned) [Example E105]  recombinant full length LRRK2 (Homo sapiens)         ≤ 100 nM
15  COc1nc(N2CC(C(C)O)C2)cc(-n2ncc3cc(C)c(C4CCN(C5CCOC5)CC4)cc32)n1 (single isomer, unassigned) [Example E99]  recombinant full length LRRK2 (Homo sapiens)        ≤ 1000 nM
16  COc1nc(N2CC(C(C)O)C2)cc(-n2ncc3cc(C)c(C4CCN(C5CCOC5)CC4)cc32)n1 (single isomer, unassigned) [Example E97]  recombinant full length LRRK2 (Homo sapiens)         ≤ 100 nM
17  COc1nc(N2CCO[C@H](CO)C2)cc(-n2ncc3cc(C)c(C4CCN(C5CCOC5)CC4F)cc32)n1 (single isomer, unassigned) [Example E124]  recombinant full length LRRK2 (Homo sapiens)         ≤ 100 nM
18  Cc1nc(N2CCOC(C(C)O)C2)cc(-n2ncc3cc(C)c(C4CCN(C5CCOC5)CC4)cc32)n1 (single isomer, unassigned) [Example E136]  recombinant full length LRRK2 (Homo sapiens)        ≤ 1000 nM
19  COc1nc(N2CCO[C@H](CO)C2)cc(-n2ncc3cc(C)c(C4CCN(C5CCOC5)CC4F)cc32)n1 (single isomer, unassigned) [Example E123]  recombinant full length LRRK2 (Homo sapiens)          ≤ 10 nM
20  COc1nc(N2CCO[C@@H](CO)C2)cc(-n2ncc3cc(C)c(C4CCN(C5CCOC5)CC4F)cc32)n1 (single isomer, unassigned) [Example E119]  recombinant full length LRRK2 (Homo sapiens)         ≤ 100 nM
21  Cc1nc(N2CC(C)(O)C2)cc(-n2ncc3cc(Cl)c(C4CCN(C5CCOC5)CC4)cc32)n1 (single isomer, unassigned)  recombinant full length LRRK2 (Homo sapiens)        ≤ 1000 nM
22  Cc1nc(N2CC(O)C2)cc(-n2ncc3cc(C)c(C4CCN(C5CCOC5)CC4F)cc32)n1 (single isomer, unassigned)  recombinant full length LRRK2 (Homo sapiens)         ≤ 100 nM
23  Cc1nc(N2CCO[C@H](CO)C2)cc(-n2ncc3cc(C)c(C4CCN(C5COCC5F)CC4)cc32)n1 (single isomer, unassigned) [Example E149]  recombinant full length LRRK2 (Homo sapiens)        ≤ 1000 nM
24  [2H]c1nn(-c2cc(N3CCO[C@@H](CO)C3)nc(C)n2)c2cc(C3CCN([C@H]4CCOC4)CC3)c(C)cc12  recombinant full length LRRK2 (Homo sapiens)        ≤ 1000 nM

* * *

# Measurement Target: recombinant full length LRRK2 (Homo sapiens, UniProt Q5S007)
# Construct: A BacMam virus expressing full length recombinant LRRK2 was purchased from Invitrogen; host or cells: SH-SY5Y human neuroblastoma cells transduced with BacMam LRRK2 virus (MOI 50)
# Sequence (Q5S007 whole entry): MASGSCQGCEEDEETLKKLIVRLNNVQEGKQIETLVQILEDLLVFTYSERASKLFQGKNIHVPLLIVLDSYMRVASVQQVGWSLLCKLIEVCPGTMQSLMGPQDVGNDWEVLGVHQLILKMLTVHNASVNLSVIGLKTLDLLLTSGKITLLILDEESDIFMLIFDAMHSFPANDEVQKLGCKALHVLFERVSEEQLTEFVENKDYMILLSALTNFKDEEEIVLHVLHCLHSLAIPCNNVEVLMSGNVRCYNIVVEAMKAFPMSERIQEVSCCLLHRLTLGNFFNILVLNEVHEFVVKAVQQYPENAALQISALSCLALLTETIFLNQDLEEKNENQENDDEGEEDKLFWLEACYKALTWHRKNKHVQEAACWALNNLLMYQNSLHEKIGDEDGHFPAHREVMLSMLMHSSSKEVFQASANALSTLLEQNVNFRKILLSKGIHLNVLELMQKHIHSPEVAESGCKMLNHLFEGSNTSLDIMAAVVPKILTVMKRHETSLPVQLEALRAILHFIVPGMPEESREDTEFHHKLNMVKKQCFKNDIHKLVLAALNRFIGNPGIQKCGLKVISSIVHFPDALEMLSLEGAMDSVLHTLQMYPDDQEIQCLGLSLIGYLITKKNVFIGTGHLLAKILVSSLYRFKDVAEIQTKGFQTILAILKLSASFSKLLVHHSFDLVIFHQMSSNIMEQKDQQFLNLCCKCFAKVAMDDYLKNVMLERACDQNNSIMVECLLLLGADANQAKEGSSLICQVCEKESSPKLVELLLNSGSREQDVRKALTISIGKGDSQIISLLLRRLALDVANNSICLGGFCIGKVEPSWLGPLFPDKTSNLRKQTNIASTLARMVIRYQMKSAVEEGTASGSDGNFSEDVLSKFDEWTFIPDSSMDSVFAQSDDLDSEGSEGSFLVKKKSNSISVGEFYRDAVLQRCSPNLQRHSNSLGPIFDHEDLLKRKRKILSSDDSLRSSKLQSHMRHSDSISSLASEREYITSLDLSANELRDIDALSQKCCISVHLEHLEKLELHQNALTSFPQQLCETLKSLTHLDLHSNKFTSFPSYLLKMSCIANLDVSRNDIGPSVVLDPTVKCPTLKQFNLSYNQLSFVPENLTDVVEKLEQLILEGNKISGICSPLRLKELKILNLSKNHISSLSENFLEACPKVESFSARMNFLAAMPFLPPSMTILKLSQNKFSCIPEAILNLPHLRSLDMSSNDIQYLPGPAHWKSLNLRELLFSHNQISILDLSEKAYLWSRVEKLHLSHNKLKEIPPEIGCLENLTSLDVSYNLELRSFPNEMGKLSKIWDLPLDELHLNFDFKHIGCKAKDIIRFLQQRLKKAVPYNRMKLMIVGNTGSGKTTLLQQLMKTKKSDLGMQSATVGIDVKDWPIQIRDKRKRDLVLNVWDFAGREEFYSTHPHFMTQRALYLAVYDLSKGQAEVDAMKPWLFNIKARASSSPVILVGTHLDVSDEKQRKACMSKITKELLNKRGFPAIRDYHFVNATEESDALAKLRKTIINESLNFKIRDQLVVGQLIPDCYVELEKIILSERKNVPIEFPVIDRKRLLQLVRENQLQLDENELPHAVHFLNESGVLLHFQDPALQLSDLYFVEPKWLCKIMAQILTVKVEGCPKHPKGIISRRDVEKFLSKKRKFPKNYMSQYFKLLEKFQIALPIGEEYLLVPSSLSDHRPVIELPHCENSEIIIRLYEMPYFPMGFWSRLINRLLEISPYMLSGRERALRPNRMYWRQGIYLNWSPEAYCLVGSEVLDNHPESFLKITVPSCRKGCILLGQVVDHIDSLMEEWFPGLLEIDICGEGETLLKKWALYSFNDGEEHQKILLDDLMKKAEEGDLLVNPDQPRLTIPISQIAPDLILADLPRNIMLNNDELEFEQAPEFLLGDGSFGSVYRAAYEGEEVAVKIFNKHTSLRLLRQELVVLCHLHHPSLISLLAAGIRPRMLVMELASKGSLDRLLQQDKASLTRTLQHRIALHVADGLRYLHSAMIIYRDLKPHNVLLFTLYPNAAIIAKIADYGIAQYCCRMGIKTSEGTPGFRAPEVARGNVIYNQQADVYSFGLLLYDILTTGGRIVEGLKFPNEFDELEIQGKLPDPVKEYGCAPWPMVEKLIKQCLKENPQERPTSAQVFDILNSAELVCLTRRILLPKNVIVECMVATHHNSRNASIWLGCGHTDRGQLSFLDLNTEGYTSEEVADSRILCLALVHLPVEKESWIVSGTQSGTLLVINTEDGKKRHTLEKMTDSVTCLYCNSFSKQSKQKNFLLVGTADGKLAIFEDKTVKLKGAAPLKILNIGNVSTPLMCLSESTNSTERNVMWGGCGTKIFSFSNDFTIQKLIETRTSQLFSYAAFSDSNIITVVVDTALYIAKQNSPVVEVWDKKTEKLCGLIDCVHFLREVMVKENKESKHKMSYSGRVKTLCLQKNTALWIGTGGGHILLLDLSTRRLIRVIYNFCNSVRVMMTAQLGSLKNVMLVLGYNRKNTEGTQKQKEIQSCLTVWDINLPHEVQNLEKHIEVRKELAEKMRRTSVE
# Assay Explanation: Recombinant cellular LRRK2 AlphaScreen assay
# Assay type: cell-based
# Condition Context: LRRK2 Ser935 phosphorylation, SH-SY5Y cells over-expressing recombinant full length LRRK2; read-out: pIC50 in the recombinant cellular LRRK2 AlphaScreen assay (converted)
# Text: b. Recombinant Cellular LRRK2 AlphaScreen Assay To determine the activity of compounds against LRRK2 kinase activity in cells, the observed LRRK2 kinase-dependent modulation of LRRK2 Ser 935 phosphorylation (Dzamko et al., 2010, Biochem. J. 430: 405-413) was utilized to develop a quantitative 384 well plate-based immunoassay of LRRK2 Ser935 phosphorylation in the human neuroblastoma cell line SH-SY5Y, engineered to over-express recombinant full length LRRK2 protein. […]
IC50 for assorted compounds
Value Type: IC50

> print(dat)
                                   compound  reported.result
1  Cc1nc(N2CCO[C@H](CO)C2)cc(-n2ncc3cc(C)c(C4CCN(C5COCC5O)CC4)cc32)n1 (single isomer, unassigned) [Example E153]         ≤ 100 nM
2  Cc1nc(N2CCO[C@H](CO)C2)cc(-n2ncc3cc(C)c(C4CCN(C5CCOC5)CC4F)cc32)n1 (single isomer, unassigned) [Example E103]         ≤ 100 nM
3  COc1nc(N2CC(C(C)O)C2)cc(-n2ncc3cc(C)c(C4CCN(C5CCOC5)CC4)cc32)n1 (single isomer, unassigned) [Example E100]        ≤ 1000 nM

* * *

# Measurement Target: recombinant full length LRRK2 (Homo sapiens, UniProt Q5S007)
# Construct: A BacMam virus expressing full length recombinant LRRK2 was purchased from Invitrogen; host or cells: SH-SY5Y human neuroblastoma cells transduced with BacMam LRRK2 virus (MOI 50)
# Assay Explanation: Recombinant cellular LRRK2 AlphaScreen assay
# Type: cell-based
# Condition Context: LRRK2 Ser935 phosphorylation, SH-SY5Y cells over-expressing recombinant full length LRRK2; read-out: pIC50 in the recombinant cellular LRRK2 AlphaScreen assay (converted)
IC50 for assorted molecules
Value Type: IC50

> print(dat)
                                   molecule  reported.result
1  Cc1nc(N2CCOC(C(C)O)C2)cc(-n2ncc3cc(C)c(C4CCN(C5CCOC5)CC4)cc32)n1 (single isomer, unassigned) [Example E139]        ≤ 1000 nM
2  Cc1nc(N[C@H]2C[C@@H](O)C2)cc(-n2ncc3cc(C)c(C4CCN(C5CCOC5)CC4)cc32)n1 (single isomer, unassigned) [Example E134]         ≤ 100 nM
3  COc1nc(N2CCO[C@H](CO)C2)cc(-n2ncc3cc(C)c(C4CCN(C5CCOC5)CC4F)cc32)n1 (single isomer, unassigned) [Example E121]          ≤ 10 nM
4  Cc1nc(N2CCO[C@H](CO)C2)cc(-n2ncc3cc(C)c(C4CCN(C5CCOC5)CC4F)cc32)n1 (single isomer, unassigned) [Example E106]        ≤ 1000 nM
5  Cc1nc(N2CCO[C@@H](CO)C2)cc(-n2ncc3cc(Cl)c(C4CCN(C5CCOC5)CC4)cc32)n1 (single isomer, unassigned) [Example E129]        ≤ 1000 nM
6  COc1nc(N2CCOC(C(C)O)C2)cc(-n2ncc3cc(C)c(C4CCN(C5CCOC5)CC4)cc32)n1 (single isomer, unassigned) [Example E21]         ≤ 100 nM

Origin of values: patent US20210130339A1
